The measurements presented in this section are drawn from ChEMBL document CHEMBL4819032.

MEASURED ON: Cyclin-dependent kinase 1/cyclin B1 (Homo sapiens, UniProt P06493)
Sequence (P06493 whole entry): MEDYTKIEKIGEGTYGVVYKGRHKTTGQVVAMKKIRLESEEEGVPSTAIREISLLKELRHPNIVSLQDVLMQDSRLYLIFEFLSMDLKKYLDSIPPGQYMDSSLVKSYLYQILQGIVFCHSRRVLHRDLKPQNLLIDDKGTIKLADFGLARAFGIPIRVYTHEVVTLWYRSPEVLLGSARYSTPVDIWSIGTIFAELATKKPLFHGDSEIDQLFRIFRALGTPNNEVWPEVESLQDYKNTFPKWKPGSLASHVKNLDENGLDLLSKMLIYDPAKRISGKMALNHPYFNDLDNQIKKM
Sequence (P14635 whole entry, further chain): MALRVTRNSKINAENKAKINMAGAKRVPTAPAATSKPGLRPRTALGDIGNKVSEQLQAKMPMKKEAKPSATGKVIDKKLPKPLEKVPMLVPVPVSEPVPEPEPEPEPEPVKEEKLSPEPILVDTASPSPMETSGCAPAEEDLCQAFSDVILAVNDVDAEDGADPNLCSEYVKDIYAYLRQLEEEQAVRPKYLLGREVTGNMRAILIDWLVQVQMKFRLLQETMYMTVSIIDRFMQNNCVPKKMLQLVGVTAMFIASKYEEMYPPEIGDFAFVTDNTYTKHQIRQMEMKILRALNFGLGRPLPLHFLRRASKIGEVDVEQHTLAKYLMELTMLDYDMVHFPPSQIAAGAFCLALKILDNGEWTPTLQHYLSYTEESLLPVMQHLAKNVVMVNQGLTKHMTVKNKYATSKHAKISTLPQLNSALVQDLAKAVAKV
ASSAY NAME: Inhibition of recombinant human full length CDK1/Cyclin B using histone H1 as substrate incubated for 40 mins in presence of [gamma-33P]-ATP by scintillation counting method
Kindly supply the reported pKi values for the records listed here.
Numbers only, as −log10 of the molar value.

Below, 2 molecules whose answers are already recorded.
STRUCTURE STRING	pKi
CNc1nc(C)c(-c2nc(Nc3cccc(N4CCN5CCC4CC5)c3)ncc2C)s1	5.93
CNc1nc(C)c(-c2nc(Nc3cccc(N4CCNCC4)c3)ncc2C)s1	5.95

-- ask Consider the molecule shown here: CNc1nc(C)c(-c2nc(Nc3cccc(N4CCCNCC4)c3)ncc2C)s1 What is its recorded pKi?
-- reply 6.11
